conditions: in isobutyl acetate, 288.15 K
Measured property: solubility (mole fraction)

INSERT INTO results (chemical_string, measured_property, quantitative_readout) VALUES
  ('OCCOc1ccc2ccccc2c1-c1c(OCCO)ccc2ccccc12', 'solubility (mole fraction)', 0.00158);

----------
conditions: in n-pentanol, 283.15 K
Measured property: solubility (mole fraction)

INSERT INTO assay_data (chemical_string, quantitative_readout) VALUES
  ('OCCOc1ccc2ccccc2c1-c1c(OCCO)ccc2ccccc12', 0.000827);

----------
details: in isobutyl acetate, 308.15 K
Measured property: solubility (mole fraction)

INSERT INTO results (chemical_string, measured_property, quantitative_readout) VALUES
  ('OCCOc1ccc2ccccc2c1-c1c(OCCO)ccc2ccccc12', 'solubility (mole fraction)', 0.00518);

----------
settings: in ethyl acetate, 293.15 K
Measured property: solubility (mole fraction)

INSERT INTO results (chemical_string, quantitative_readout) VALUES
  ('OCCOc1ccc2ccccc2c1-c1c(OCCO)ccc2ccccc12', 0.00464);

----------
conditions: in ethyl acetate, 308.15 K
Measured property: solubility (mole fraction)

INSERT INTO assay_data (chemical_string, quantitative_readout) VALUES
  ('OCCOc1ccc2ccccc2c1-c1c(OCCO)ccc2ccccc12', 0.0104);

----------
settings: in n-butanol, 308.15 K
Measured property: solubility (mole fraction)

INSERT INTO measurements (chemical_string, quantitative_readout) VALUES
  ('OCCOc1ccc2ccccc2c1-c1c(OCCO)ccc2ccccc12', 0.00428);

----------
conditions: in isobutyl acetate, 318.15 K
Measured property: solubility (mole fraction)

INSERT INTO measurements (chemical_string, measured_property, quantitative_readout) VALUES
  ('OCCOc1ccc2ccccc2c1-c1c(OCCO)ccc2ccccc12', 'solubility (mole fraction)', 0.00911);

----------
conditions: in isobutanol, 308.15 K
Measured property: solubility (mole fraction)

INSERT INTO measurements (chemical_string, measured_property, quantitative_readout) VALUES
  ('OCCOc1ccc2ccccc2c1-c1c(OCCO)ccc2ccccc12', 'solubility (mole fraction)', 0.00291);

----------
details: in methyl acetate, 318.15 K
Measured property: solubility (mole fraction)

INSERT INTO results (chemical_string, measured_property, quantitative_readout) VALUES
  ('OCCOc1ccc2ccccc2c1-c1c(OCCO)ccc2ccccc12', 'solubility (mole fraction)', 0.0218);

----------
conditions: in isobutanol, 323.15 K
Measured property: solubility (mole fraction)

INSERT INTO results (chemical_string, measured_property, quantitative_readout) VALUES
  ('OCCOc1ccc2ccccc2c1-c1c(OCCO)ccc2ccccc12', 'solubility (mole fraction)', 0.00655);

----------
conditions: in isopropanol, 303.15 K
Measured property: solubility (mole fraction)

INSERT INTO results (chemical_string, quantitative_readout) VALUES
  ('OCCOc1ccc2ccccc2c1-c1c(OCCO)ccc2ccccc12', 0.00263);

----------
conditions: in n-butyl acetate, 303.15 K
Measured property: solubility (mole fraction)

INSERT INTO measurements (chemical_string, quantitative_readout) VALUES
  ('OCCOc1ccc2ccccc2c1-c1c(OCCO)ccc2ccccc12', 0.00486);

----------
details: in n-pentanol, 293.15 K
Measured property: solubility (mole fraction)

INSERT INTO assay_data (chemical_string, result) VALUES
  ('OCCOc1ccc2ccccc2c1-c1c(OCCO)ccc2ccccc12', 0.00163);

----------
conditions: in n-pentanol, 313.15 K
Measured property: solubility (mole fraction)

INSERT INTO results (chemical_string, result) VALUES
  ('OCCOc1ccc2ccccc2c1-c1c(OCCO)ccc2ccccc12', 0.00551);

----------
settings: in acetone, 293.15 K
Measured property: solubility (mole fraction)

INSERT INTO measurements (chemical_string, measured_property, quantitative_readout) VALUES
  ('OCCOc1ccc2ccccc2c1-c1c(OCCO)ccc2ccccc12', 'solubility (mole fraction)', 0.0121);

----------
settings: in n-pentanol, 298.15 K
Measured property: solubility (mole fraction)

INSERT INTO measurements (chemical_string, quantitative_readout) VALUES
  ('OCCOc1ccc2ccccc2c1-c1c(OCCO)ccc2ccccc12', 0.00227);

----------
conditions: in isobutanol, 303.15 K
Measured property: solubility (mole fraction)

INSERT INTO assay_data (chemical_string, measured_property, result) VALUES
  ('OCCOc1ccc2ccccc2c1-c1c(OCCO)ccc2ccccc12', 'solubility (mole fraction)', 0.00209);

----------
conditions: in acetone, 313.15 K
Measured property: solubility (mole fraction)

INSERT INTO results (chemical_string, quantitative_readout) VALUES
  ('OCCOc1ccc2ccccc2c1-c1c(OCCO)ccc2ccccc12', 0.0352);

----------
details: in n-butyl acetate, 323.15 K
Measured property: solubility (mole fraction)

INSERT INTO assay_data (chemical_string, measured_property, result) VALUES
  ('OCCOc1ccc2ccccc2c1-c1c(OCCO)ccc2ccccc12', 'solubility (mole fraction)', 0.0144);

----------
conditions: in n-propanol, 323.15 K
Measured property: solubility (mole fraction)

INSERT INTO assay_data (chemical_string, result) VALUES
  ('OCCOc1ccc2ccccc2c1-c1c(OCCO)ccc2ccccc12', 0.012);

----------
conditions: in isobutyl acetate, 313.15 K
Measured property: solubility (mole fraction)

INSERT INTO results (chemical_string, quantitative_readout) VALUES
  ('OCCOc1ccc2ccccc2c1-c1c(OCCO)ccc2ccccc12', 0.00692);

----------
conditions: in acetone, 308.15 K
Measured property: solubility (mole fraction)

INSERT INTO measurements (chemical_string, quantitative_readout) VALUES
  ('OCCOc1ccc2ccccc2c1-c1c(OCCO)ccc2ccccc12', 0.027);

----------
settings: in ethyl formate, 318.15 K
Measured property: solubility (mole fraction)

INSERT INTO assay_data (chemical_string, result) VALUES
  ('OCCOc1ccc2ccccc2c1-c1c(OCCO)ccc2ccccc12', 0.0161);

----------
conditions: in ethyl acetate, 283.15 K
Measured property: solubility (mole fraction)

INSERT INTO results (chemical_string, measured_property, quantitative_readout) VALUES
  ('OCCOc1ccc2ccccc2c1-c1c(OCCO)ccc2ccccc12', 'solubility (mole fraction)', 0.00227);
